B1: library; numbered along this chain (parent)
chain: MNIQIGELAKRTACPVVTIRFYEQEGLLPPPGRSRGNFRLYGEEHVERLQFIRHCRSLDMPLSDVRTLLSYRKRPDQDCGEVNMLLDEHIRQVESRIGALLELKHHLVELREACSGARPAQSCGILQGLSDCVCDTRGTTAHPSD

- Variants of: B1
- assay-notes: sfGFP reporter fluorescence (15 h) (µM FITC); higher = stronger transcriptional activation
- experimental-conditions: library round: Round 0; ligand: 1 µM Pb
Label Not satisfied if sfGFP reporter fluorescence falls below 0.06; label Satisfied in every other case.

sequence-code: MNIQIGELAKRTACPVVTIRFYEQEGLLPGPGRSRGNFRLYGEEHVERLQFIRHCRSLDMPLSDVRTLLSYRKRPDQDCGEVNMLLDEHIRQVESRIGALLELKHHLVELREACSGARPAQSCGILQGLSDCVCDTRGTTAHPSD [P30G]
classification: Satisfied

sequence-code: MNIQIGELAKRTACPVVTIRFYEQEGLLPPPGRSRGNFRLYGEEHVERLQFIRHCRSLDMPLSDVRTLLSYRKRPDQDCGEVNMMLDEHIRQVESRIGALLELKHHLVELREACSGARPAQSCGILQGLSDCVCDTRGTTAHPSD [L85M]
classification: Satisfied

sequence-code: MNIQIGELAKRTACPVVTIRFYEQEGLLPPPGRSRGNFRLYGEEHVERLQFIRHCRSLDMPLSDVRTLLSYRKRPDQDCGEVNMLLDEHIRQVESRIGALLELKHHLVELRNACSGARPAQSCGILQGLSDCVCDTRGTTAHPSD [E112N]
classification: Satisfied

sequence-code: MNIQIGELAKRTACPVVTIRFYEQEGLLPPPGRSRGNFRLYGEEHVERLQFIRHCRSLDMPLSDVRTLLSYRKRPDQDCGEVNMLLDEHIRQVESRIGALLELKHHLVELREACSGARPAQSCGILQGFSDCVCDTRGTTAHPSD [L129F]
classification: Not satisfied

sequence-code: MNIQIGELAKRTACPVVTIRFYEQEGLLPPPGRSRGNFRLYGEEHVERLQFIRHCRSLDMPLSDVRTLLSYRKRPDQDCGEVNMLLDEHIRQVESRIGALLELKHHLVELREACSGARPAQSMGILQGLSDCVCDTRGTTAHPSD [C123M]
classification: Not satisfied

sequence-code: MNIQIGELAKRTACPVVTIRFYEQEGLLPPPGRSRGNFRLYGEEHVERLQFIRHCRSLDMPLSDVRTLLSYRKRPDQDAGEVNMLLDEHIRQVESRIGALLELKHHLVELREACSGARPAQSCGILQGLSDCVCDTRGTTAHPSD [C79A]
classification: Not satisfied

sequence-code: MNIQIGELAKRTACPVVTIRFYEQEGLLPPPGRSRGNFRLYGEEHVERLQFIRHCRSLDMPLSDVRTLLSYRKRPDQDCGEVNMLLDEHIRQVESRIGALLELKHHLVELREACSGARPAQSCGILQGCSDCVCDTRGTTAHPSD [L129C]
classification: Not satisfied

sequence-code: MNIQIGELAKRTACPVVTIRFYEQEGLLPRPGRSRGNFRLYGEEHVERLQFIRHCRSLDMPLSDVRTLLSYRKRPDQDCGEVNMLLDEHIRQVESRIGALLELKHHLVELREACSGARPAQSCGILQGLSDCVCDTRGTTAHPSD [P30R]
classification: Satisfied

sequence-code: MNIQIGRLAKRTACPVVTIRFYEQEGLLPPPGRSRGNFRLYGEEHVERLQFIRHCRSLDMPLSDVRTLLSYRKRPDQDCGEVNMLLDEHIRQVESRIGALLELKHHLVELREACSGARPAQSCGILQGLSDCVCDTRGTTAHPSD [E7R]
classification: Satisfied

sequence-code: MNIQIGELAKRTACPVVTIRFYEQEGLLPPPGRSRGNFRLYGEEHVERLQFIRHCRSLDMMLSDVRTLLSYRKRPDQDCGEVNMLLDEHIRQVESRIGALLELKHHLVELREACSGARPAQSCGILQGLSDCVCDTRGTTAHPSD [P61M]
classification: Satisfied

sequence-code: MNIQIGELAKRTACPVVTIRFYEQEGLLPPPGRSRNNFRLYGEEHVERLQFIRHCRSLDMPLSDVRTLLSYRKRPDQDCGEVNMLLDEHIRQVESRIGALLELKHHLVELREACSGARPAQSCGILQGLSDCVCDTRGTTAHPSD [G36N]
classification: Satisfied

sequence-code: MNIQIGELAKRTACPVVTIRFYEQEGLLPPPGRSRGNFRLYGEEHVERLQFIRHCRSLDLPLSDVRTLLSYRKRPDQDCGEVNMLLDEHIRQVESRIGALLELVHHCVELREACSGARPAQSCGILQMLSDCVCDTRGTTAHPSD [M60L K104V L107C G128M]
classification: Satisfied

sequence-code: MNIQIGELAKRTACPVVTIRFYEQEGLLPPPGRSRGNFRLYGEEHVERLQFIRHCRSLDMPLSDVRTLLSYRKRPDQDCGEVNMLLDEHIRQVESRIGALLELKHHLVELREACSGARPAQSCGIQQGLSDCVCDTRGTTAHPSD [L126Q]
classification: Not satisfied

sequence-code: MNIQIGELAKRTACPVVTIRFYEQEGLLPPPGRSRGNFRLYGEEHVERLQFIRHCRSLDMPLSDVRTLLSYRKRPDQDCGEVNMLLDEHIRQVESRIGALLELKHHLVEAREACSGARPAQSCGILQGLSDCVCDTRGTTAHPSD [L110A]
classification: Satisfied

sequence-code: MNIQIGELAKRTACPVVTIRFYEQEGLLPPPGRSRGNFRLYGEEHVERLQFIRHCRSLDLPLSKVRTLLSYRKRPDQDCGEVNMLLDEHIRQVESRIGALLELVHHLVELREACSGARPAQSCGILQILSDCVCDTRGTTAHPSD [M60L D64K K104V G128I]
classification: Satisfied

sequence-code: MNIQIGELAKRTACPVVTIRFYEQEGLLPPPGRSRGNFRLYGEEHVERLQFIRHCRSLDMLLSDVRTLLSYRKRPDQDCGEVNMLLDEHIRQVESRIGALLELKHHLVELREACSGARPAQSCGILQGLSDCVCDTRGTTAHPSD [P61L]
classification: Satisfied

sequence-code: MNIQIGELAKRTACPVVTIRWYEQEGLLPPPGRSRGNFRLYGEEHVERLQFIRHCRSLDMPLSDVRTLLSYRKRPDQDCGEVNMLLDEHIRQVESRIGALLELKHHLVELREACSGARPAQSCGILQGLSDCVCDTRGTTAHPSD [F21W]
classification: Satisfied
